Assay: Pharmacokinetic study: plasma kinetics after oral administration of free or encapsulated εVin
Type: in vivo, rats
Conditions: male, Wistar, rat, plasma, po, 20 mg/kg, rat plasma, oral 20 mg/kg bw εVin, encapsulated form (MLLs); read-out: T½
recorded_metric: half-life (h)
Supply the numeric figure in h, leaving out any unit text.

Reported half-life of Oc1ccc(/C=C/c2cc(O)cc3c2[C@@H](c2cc(O)cc(O)c2)[C@H](c2ccc(O)cc2)O3)cc1 [εVin, Trans-ε-viniferin] : 1.91

* * *

Assay: Pharmacokinetic study: plasma kinetics after oral administration of free or encapsulated εVin
Format: in vivo, rats
Details: male, Wistar, rat, plasma, po, 20 mg/kg, rat plasma, oral 20 mg/kg bw εVin, encapsulated form (MLLs); read-out: MRT (mean residence time) (converted)
recorded_metric: MRT (h)
Give your result in h as a bare value.

Value of MRT reported for the compound Oc1ccc(/C=C/c2cc(O)cc3c2[C@@H](c2cc(O)cc(O)c2)[C@H](c2ccc(O)cc2)O3)cc1 [εVin, Trans-ε-viniferin] is 3.27

* * *

Experiment: Pharmacokinetic study: plasma kinetics after oral administration of free or encapsulated εVin
Type: in vivo, rats
Conditions: male, Wistar, rat, plasma, po, 20 mg/kg, rat plasma, oral 20 mg/kg bw εVin, free form; read-out: Lambda z (converted)
recorded_metric: k el (s⁻¹)
Respond numerically; units are s⁻¹ and should not be typed.

Recorded k el (compound Oc1ccc(/C=C/c2cc(O)cc3c2[C@@H](c2cc(O)cc(O)c2)[C@H](c2ccc(O)cc2)O3)cc1 [εVin, Trans-ε-viniferin] ): 0.000345

* * *

Test: Pharmacokinetic study: plasma kinetics after oral administration of free or encapsulated εVin
Type: in vivo, rats
Conditions: male, Wistar, rat, plasma, po, 20 mg/kg, rat plasma, oral 20 mg/kg bw εVin, free form; read-out: T½
recorded_metric: half-life
Answer format: value, then unit.

For reference, reported half-life for Oc1ccc(/C=C/c2cc(O)cc3c2[C@@H](c2cc(O)cc(O)c2)[C@H](c2ccc(O)cc2)O3)cc1 [εVin, Trans-ε-viniferin] stands at 55 min

* * *

Test: Pharmacokinetic study: plasma kinetics after oral administration of free or encapsulated εVin
Type: in vivo, rats
Details: male, Wistar, rat, plasma, po, 20 mg/kg, rat plasma, oral 20 mg/kg bw εVin, free form; read-out: MRT (mean residence time) (converted)
recorded_metric: MRT
Report the figure along with its unit, number first.

Value of MRT reported for the molecule Oc1ccc(/C=C/c2cc(O)cc3c2[C@@H](c2cc(O)cc(O)c2)[C@H](c2ccc(O)cc2)O3)cc1 [εVin, Trans-ε-viniferin] is 2.12 h

* * *

Assay: Pharmacokinetic study: plasma kinetics after oral administration of free or encapsulated εVin
Assay type: in vivo, rats
Conditions: rat plasma, oral 20 mg/kg bw εVin, free form; 20 mg/kg
recorded_metric: Cmax
Give the figure together with its unit, number first.

For this compound ( Oc1ccc(/C=C/c2cc(O)cc3c2[C@@H](c2cc(O)cc(O)c2)[C@H](c2ccc(O)cc2)O3)cc1 [εVin, Trans-ε-viniferin] ), measured Cmax is 15.3 nM

* * *

Assay: Pharmacokinetic study: plasma kinetics after oral administration of free or encapsulated εVin
Assay type: in vivo, rats
Conditions: male, Wistar, rat, plasma, po, 20 mg/kg, rat plasma, oral 20 mg/kg bw εVin, encapsulated form (MLLs); read-out: Lambda z (converted)
recorded_metric: k el
Could you give the number and then its unit, please?

response.value for Oc1ccc(/C=C/c2cc(O)cc3c2[C@@H](c2cc(O)cc(O)c2)[C@H](c2ccc(O)cc2)O3)cc1 [εVin, Trans-ε-viniferin] (field: k el) = 0.000137 s⁻¹
